EXPERIMENTAL TARGET: HLA-B*35:01
ASSAY INFO: IEDB peptide-MHC binding, purified MHC/competitive/fluorescence; filed as Kd, often an IC50 or EC50 that approximates it; bounds were set here for any values at or beyond the usual limits of such assays
EXPERIMENTAL CONDITIONS: source organism: Bacillus cereus G9241
PROPERTY NAME: Kd

Kd reading for `FVHDSVQYF` : 900 pM

* * *

EXPERIMENTAL TARGET: HLA-A*68:02
ASSAY INFO: IEDB peptide-MHC binding, purified MHC/competitive/radioactivity; filed as Kd, often an IC50 or EC50 that approximates it; bounds were set here for any values at or beyond the usual limits of such assays
EXPERIMENTAL CONDITIONS: source organism: Dengue virus 4 Philippines/H241/1956
pKd: −log10 of the molar value.
Threshold check on pKd: at or above 8 gives fulfilled, strictly below gives not fulfilled.

Say whether `ASMAICSAV` shows pKd of 8 or more.
not fulfilled

Does pKd meet or surpass 8 for `YTMCSGKFSI` ?
fulfilled

Given `TVFFVLMMLV` , state whether its pKd is at least 8.
not fulfilled

Would you say `TMFGGVSWMV` shows pKd at minimum 8?
fulfilled

* * *

EXPERIMENTAL TARGET: HLA-A*30:01
ASSAY INFO: IEDB peptide-MHC binding, purified MHC/competitive/radioactivity; filed as Kd, often an IC50 or EC50 that approximates it; bounds were set here for any values at or beyond the usual limits of such assays
EXPERIMENTAL CONDITIONS: source organism: Dengue virus 1 Brazil/97-11/1997
PROPERTY NAME: pKd
Lab note — pKd values are minus log10 of concentrations in M.

pKd reading for `KTFDTEYQK` : 6.41

Kindly note the recorded pKd for `TFKTAHAKK` , which is 7.00

pKd reported for this sequence `TARGARRMA` : 5.20

* * *

EXPERIMENTAL TARGET: HLA-B*35:01
ASSAY INFO: IEDB peptide-MHC binding, purified MHC/competitive/radioactivity; filed as Kd, often an IC50 or EC50 that approximates it; bounds were set here for any values at or beyond the usual limits of such assays
EXPERIMENTAL CONDITIONS: source organism: Mammarenavirus lassaense
PROPERTY NAME: Kd (nM)
Just the number in nM, nothing appended.

So for `YPSMFEKHI` , the logged Kd turned out to be 898

* * *

EXPERIMENTAL TARGET: HLA-B*35:01
ASSAY INFO: IEDB peptide-MHC binding, purified MHC/competitive/fluorescence; filed as Kd, often an IC50 or EC50 that approximates it; bounds were set here for any values at or beyond the usual limits of such assays
EXPERIMENTAL CONDITIONS: source organism: Yersinia pestis Nepal516
PROPERTY NAME: Kd (nM)
Numbers only here, please. The scale is nM.

Entry `MVLSGTLAY` under HLA-B*35:01 had Kd of 1.2

* * *

EXPERIMENTAL TARGET: HLA-A*26:01
ASSAY INFO: IEDB peptide-MHC binding, purified MHC/competitive/fluorescence; filed as Kd, often an IC50 or EC50 that approximates it; bounds were set here for any values at or beyond the usual limits of such assays
EXPERIMENTAL CONDITIONS: source organism: Influenza A virus (A/Memphis/1/1978(H1N1))
PROPERTY NAME: pKd
Reminder that pKd means the negative base-10 logarithm of the concentration expressed in mol/L.

Item `SIIGILHLI` was tested on HLA-A*26:01; the reported pKd is 4.89
